Reported Human Primary Hepatocytes-splice site editing % 1250 ng/mL values follow for various molecules
Tested on: PCSK9 gene splice site
Format: cell-based, human
parameter.measured: Human Primary Hepatocytes-splice site editing % 1250 ng/mL (%)

molecule	endpoint.value
GA073: PCSK9 gRNA; protospacer GCTTACCTGTCTGTGGAAGC (SEQ ID NO: 67), splice donor of intron 4 (nucleic acid, listed as RNA; modified_base 1: mod_base = OTHER; note = 2'-O-Methyl-guanosine phosphorothioate; modified_base 2: mod_base = OTHER; note = 2'-O-Methyl-cytidine phosphorothioate; modified_b) guide: GCTTACCTGTCTGTGGAAGCGTTTTAGAGCTAGAAATAGCAAGTTAAAATAAGGCTAGTCCGTTATCAACTTGAAAAAGTGGCACCGAGTCGGTGCTTTT	11.2
GA083: PCSK9 gRNA for ABE8.8 splice site editing, Human/Cyno (nucleic acid, 2'-O-methyl at 1, 2, other sugars and backbone not given here; further chemistry not fully specified, PCSK9 gRNA for ABE8.8 splice site editing, Human/Cyno) guide: UAAGGCCCAAGGGGGCAAGCGTTTTAGAGCTAGAAATAGCAAGTTAAAATAAGGCTAGTCCGTTATCAACTTGAAAAAGTGGCACCGAGTCGGTGCTTTT	0.2
GA086: PCSK9 gRNA for ABE8.8 splice site editing, Human/Cyno (nucleic acid, listed as RNA; modified_base 1: mod_base = OTHER; note = 2'-O-Methyl-uridine phosphorothioate; modified_base 2: mod_base = OTHER; modified_base, PCSK9 gRNA for ABE8.8 splice site editing, Human/Cyno) guide: TTCACCTGCTCCTGAGGGGCGTTTTAGAGCTAGAAATAGCAAGTTAAAATAAGGCTAGTCCGTTATCAACTTGAAAAAGTGGCACCGAGTCGGTGCTTTT	2.9
GA080: PCSK9 gRNA for ABE8.8 splice site editing, Human/Cyno (nucleic acid, 2'-O-methyl at 1, 2, other sugars and backbone not given here; further chemistry not fully specified, PCSK9 gRNA for ABE8.8 splice site editing, Human/Cyno) guide: CCTTTCCAGGTCATCACAGTGTTTTAGAGCTAGAAATAGCAAGTTAAAATAAGGCTAGTCCGTTATCAACTTGAAAAAGTGGCACCGAGTCGGTGCTTTT	0.4

These measurements were taken from patent US20250152746A1.
